biological target: Glutamate receptor ionotropic, NMDA 2C (Rattus norvegicus); test: Agonist activity at rat GluN2C expressed in Xenopus laevis oocytes assessed effect on current response at holding potential -60 mV by two-electrode voltage clamp method relative to L-glutamate/glycine; assay type: cell-based
Calls of active or inactive are those of the source. The calls are words filed in the database; no cut-off is given here.
MEASUREMENT TYPE: Activity

Observe how each entry below is paired with its result.
I looked up O=C(O)c1ccc2cc(CCCCc3ccccc3)ccc2c1 and its Activity for Glutamate receptor ionotropic, NMDA 2C (Rattus norvegicus) was inactive

I looked up CC(C)CCC(C)c1ccc2cc(C(=O)O)ccc2c1 (racemic) and its Activity for Glutamate receptor ionotropic, NMDA 2C (Rattus norvegicus) was inactive

I looked up CC(C/C=C/c1ccc2cc(C(=O)O)ccc2c1)C(=O)O (racemic) and its Activity for Glutamate receptor ionotropic, NMDA 2C (Rattus norvegicus) was inactive

I looked up CCCCOc1ccc2cc(C(=O)O)ccc2c1 and its Activity for Glutamate receptor ionotropic, NMDA 2C (Rattus norvegicus) was inactive

I looked up O=C(O)c1ccc2cc(C3CC3)ccc2c1 and its Activity for Glutamate receptor ionotropic, NMDA 2C (Rattus norvegicus) was inactive

Please examine the following record next.
I looked up CC(C)CCCc1ccc2ccc(C(=O)O)cc2c1 and its Activity for Glutamate receptor ionotropic, NMDA 2C (Rattus norvegicus) was inactive

Measured values drawn from ChEMBL document CHEMBL4422636 for this set.
